tested.on: FGFR1 (h) (Homo sapiens)
test.name: FGFR1 (enzymatic assay), TR-FRET
Assay type: biochemical
applied.conditions: average values if tested multiple times, read-out: FGFR 1 pIC50 (converted)
Where a name gives a salt, the structure may show the parent alone.
measured.property: log10 of IC50 (log10 of the value in nM)
Recall that a logarithmic scale is used here: each number is log10 of IC50 in nM.

COc1cc(OC)cc(N(Cc2ncc[nH]2)c2ccc3ncc(-c4cnn(C)c4)nc3n2)c1 [24-phosphate salt] | -0.15
COc1cc(OC)cc(N(CCNC(C)C)c2ccc3ncc(-c4cnn(C)c4)nc3n2)c1 | 0.70
CNCCn1/c(=N/c2c(F)cccc2F)ccc2ncc(-c3cnn(C)c3)nc21 | 2.69

Reported log10 of IC50 (FGFR1 (h) (Homo sapiens)) for entry "CNCCn1/c(=N/c2c(Cl)ccc(OC)c2Cl)ccc2ncc(-c3cnn(C)c3)nc21" is 2.35

* * *

tested.on: Ba/F3-KDR-transfected cells (Homo sapiens, UniProt P35968)
Construct: BAF3-KDR (MIN IL3) pIC50; other: minus IL3
Sequence (P35968 whole entry, change not shown): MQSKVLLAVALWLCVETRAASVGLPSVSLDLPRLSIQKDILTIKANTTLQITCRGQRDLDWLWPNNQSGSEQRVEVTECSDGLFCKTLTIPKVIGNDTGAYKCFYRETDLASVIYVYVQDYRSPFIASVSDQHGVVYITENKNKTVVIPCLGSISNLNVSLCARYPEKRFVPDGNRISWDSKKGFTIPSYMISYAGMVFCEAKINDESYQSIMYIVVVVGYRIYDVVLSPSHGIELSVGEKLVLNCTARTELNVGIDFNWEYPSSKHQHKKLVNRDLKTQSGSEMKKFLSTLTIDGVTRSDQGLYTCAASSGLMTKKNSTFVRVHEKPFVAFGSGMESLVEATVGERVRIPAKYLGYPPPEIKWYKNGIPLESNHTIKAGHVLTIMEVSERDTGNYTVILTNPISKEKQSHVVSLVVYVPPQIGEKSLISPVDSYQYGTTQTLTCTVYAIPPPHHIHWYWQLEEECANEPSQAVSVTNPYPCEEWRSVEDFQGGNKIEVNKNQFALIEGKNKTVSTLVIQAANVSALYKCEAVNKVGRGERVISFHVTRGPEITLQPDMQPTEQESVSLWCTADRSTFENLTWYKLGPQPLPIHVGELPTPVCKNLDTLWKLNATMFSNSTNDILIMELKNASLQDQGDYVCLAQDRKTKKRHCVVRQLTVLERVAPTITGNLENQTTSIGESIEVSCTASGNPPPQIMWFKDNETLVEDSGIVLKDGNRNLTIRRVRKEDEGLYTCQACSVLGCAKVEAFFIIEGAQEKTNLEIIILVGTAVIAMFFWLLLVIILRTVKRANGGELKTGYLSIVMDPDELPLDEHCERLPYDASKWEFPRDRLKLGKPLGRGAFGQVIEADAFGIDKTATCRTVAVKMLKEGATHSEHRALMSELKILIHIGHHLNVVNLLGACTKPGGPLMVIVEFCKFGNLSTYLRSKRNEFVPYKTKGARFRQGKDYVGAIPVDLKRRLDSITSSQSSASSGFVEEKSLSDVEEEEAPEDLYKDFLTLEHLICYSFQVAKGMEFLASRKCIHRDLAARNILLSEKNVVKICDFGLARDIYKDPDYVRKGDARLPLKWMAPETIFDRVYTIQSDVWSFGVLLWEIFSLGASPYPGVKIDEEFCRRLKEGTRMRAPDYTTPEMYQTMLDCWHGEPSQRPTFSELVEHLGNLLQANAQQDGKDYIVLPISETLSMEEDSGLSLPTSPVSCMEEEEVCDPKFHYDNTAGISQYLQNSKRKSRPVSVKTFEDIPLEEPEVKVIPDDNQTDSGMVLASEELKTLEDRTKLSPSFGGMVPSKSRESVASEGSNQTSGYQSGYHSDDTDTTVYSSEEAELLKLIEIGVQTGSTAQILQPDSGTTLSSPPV
test.name: Ba/F3-KDR (minus IL3) cellular proliferation assay, Alamar Blue
Format: cell-based
Where a name gives a salt, the structure may show the parent alone.
measured.property: BAF3-KDR (MIN IL3) pIC50
Give the figure only, with no unit attached.

COc1cc(OC)c(F)c(N(Cc2cc[nH]n2)c2ccc3ncc(-c4cnn(C)c4)nc3n2)c1 [Compound 118] | 6.60

Lab note: measured BAF3-KDR (MIN IL3) pIC50 of COc1cc(OC)c(C)c(N(Cc2ncc[nH]2)c2ccc3ncc(-c4cnn(C)c4)nc3n2)c1 [Compound 273] was 6.44

Lab note: measured BAF3-KDR (MIN IL3) pIC50 of COc1cc(OC)c(F)c(/N=c2\ccc3ncc(-c4cnn(C)c4)nc3n2CCCN2CCCC2=O)c1F [Compound 55] was 7.13

Lab note: measured BAF3-KDR (MIN IL3) pIC50 of COc1cc(OC)cc(N(Cc2ncc[nH]2)c2ccc3ncc(-c4cnn(C)c4)nc3n2)c1 [24-fumarate salt] was 6.38

Lab note: measured BAF3-KDR (MIN IL3) pIC50 of COc1cc(OC)c(F)c(N(CC2CCOC2)c2ccc3ncc(-c4cnn(C)c4)nc3n2)c1 (single isomer, unassigned) [Compound 170] was 5.56

Lab note: measured BAF3-KDR (MIN IL3) pIC50 of COc1cc(OC)c(F)c(N(CC2CCOC2)c2ccc3ncc(-c4cnn(C)c4)nc3n2)c1 (single isomer, unassigned) [Compound 171] was 5.63

* * *

System: Ba/F3-KDR-transfected cells
test.name: Ba/F3-KDR (plus IL3) cellular proliferation assay, counterscreen with 10 ng/ml murine IL3
Format: cell-based
applied.conditions: plus IL3 (10 ng/ml murine IL3, counterscreen); read-out: BAF3-KDR (PLUS IL3) pIC50 (converted)
measured.property: IC50

COc1cc(OC)cc(N(Cc2n[nH]c(=O)o2)c2ccc3ncc(-c4cnn(C)c4)nc3n2)c1 | > 10 µM

Lab note: measured IC50 of "COc1cc(OC)c(F)c(N(Cc2ncc[nH]2)c2ccc3ncc(N4CCOCC4)nc3n2)c1" was > 10 µM

Lab note: measured IC50 of "COc1cc(OC)c(F)c(N(Cc2nccn2CCO)c2ccc3ncc(-c4cnn(C)c4)nc3n2)c1" was > 10 µM

Lab note: measured IC50 of COc1cc(OC)c(F)c(N(CC2CCC(=O)N2)c2ccc3ncc(-c4cnn(CC(C)(C)O)c4)nc3n2)c1 (stereo not shown) was > 10 µM

Lab note: measured IC50 of COc1cc(OC)c(F)c(N(CC2COC(=O)N2)c2ccc3ncc(-c4cnn(C)c4)nc3n2)c1 (single isomer, unassigned) [Compound 111] was > 10 µM

Lab note: measured IC50 of "COc1cc(/N=c2\ccc3ncc(-c4cnn(C)c4)nc3n2Cc2c(C)noc2C)c(F)c(OC)c1" was > 3.02 µM

Lab note: measured IC50 of "COc1cc(OC)c(F)c(N(CC(=O)NCCO)c2ccc3ncc(-c4cnn(C)c4)nc3n2)c1" was > 10 µM

* * *

tested.on: Ba/F3-FGFR1-transfected cells (Homo sapiens)
Construct: BAF3-FGFR1 (MIN IL3) pIC50; other: minus IL3
Sequence (P11362 whole entry, change not shown): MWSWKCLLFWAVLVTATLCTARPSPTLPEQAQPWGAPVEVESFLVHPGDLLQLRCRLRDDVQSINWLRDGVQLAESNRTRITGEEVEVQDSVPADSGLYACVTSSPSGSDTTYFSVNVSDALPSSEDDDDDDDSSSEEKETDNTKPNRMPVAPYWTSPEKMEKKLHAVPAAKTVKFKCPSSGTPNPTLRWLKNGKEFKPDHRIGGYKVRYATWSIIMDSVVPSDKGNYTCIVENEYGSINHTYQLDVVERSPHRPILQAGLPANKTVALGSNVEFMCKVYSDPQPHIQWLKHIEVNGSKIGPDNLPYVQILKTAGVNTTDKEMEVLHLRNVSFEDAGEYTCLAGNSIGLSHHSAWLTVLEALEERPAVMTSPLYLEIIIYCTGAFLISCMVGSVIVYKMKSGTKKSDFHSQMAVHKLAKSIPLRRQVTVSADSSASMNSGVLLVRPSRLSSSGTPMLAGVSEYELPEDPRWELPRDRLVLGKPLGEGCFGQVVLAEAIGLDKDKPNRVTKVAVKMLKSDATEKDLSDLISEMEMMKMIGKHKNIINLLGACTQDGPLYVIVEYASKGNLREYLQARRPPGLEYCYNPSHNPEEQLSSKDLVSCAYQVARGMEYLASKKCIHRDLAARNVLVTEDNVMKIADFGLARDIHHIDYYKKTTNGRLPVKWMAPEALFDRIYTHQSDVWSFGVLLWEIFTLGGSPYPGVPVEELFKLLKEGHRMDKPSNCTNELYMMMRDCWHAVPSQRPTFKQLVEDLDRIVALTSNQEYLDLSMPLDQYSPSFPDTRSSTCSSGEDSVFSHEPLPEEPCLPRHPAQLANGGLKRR
test.name: Ba/F3-FGFR1 (minus IL3) cellular proliferation assay, Alamar Blue
Type: cell-based
Where a name gives a salt, the structure may show the parent alone.
// classify: if (BAF3-FGFR1 (MIN IL3) pIC50 < 7) Satisfied else Not satisfied

For orientation, consider the following solved cases.
COc1cc(OC)c(F)c(N(CCN2CCCC2=O)c2ccc3ncc(-c4cnn(C)c4)nc3n2)c1 | Satisfied
COc1cc(OC)cc(N(CC(O)C(F)(F)F)c2ccc3ncc(-c4cnn(C)c4)nc3n2)c1 (stereo not shown) [Compound 8] | Not satisfied
COc1cc(OC)cc(N(Cc2ncc[nH]2)c2ccc3ncc(-c4cnn(C)c4)nc3n2)c1 (racemic) [24-DL-tartrate salt] | Not satisfied
COc1cc(OC)cc(N(Cc2ncccn2)c2ccc3ncc(-c4cnn(C)c4)nc3n2)c1 | Not satisfied
COc1cc(OC)cc(N(Cc2ncc[nH]2)c2ccc3ncc(-c4ccncc4)nc3n2)c1 | Not satisfied

stdin: API: query returns whether the compound falls strictly under 7 in BAF3-FGFR1 (MIN IL3) pIC50. Query: "COc1cc(/N=c2\ccc3ncc(-c4cnn(C)c4)nc3n2CCCO)cc(OC)c1"
stdout: Not satisfied

stdin: API: query returns whether the compound falls strictly under 7 in BAF3-FGFR1 (MIN IL3) pIC50. Query: COc1ccc(Cl)c(/N=c2\ccc3ncc(-c4cnn(C)c4)nc3n2CC2CCC(=O)N2)c1Cl (stereo not shown) [Compound 92]
stdout: Satisfied

stdin: API: query returns whether the compound falls strictly under 7 in BAF3-FGFR1 (MIN IL3) pIC50. Query: COc1cc(OC)c(F)c(N(CC(O)COC(C)C)c2ccc3ncc(-c4cnn(C)c4)nc3n2)c1 (single isomer, unassigned) [Compound 75]
stdout: Not satisfied

stdin: API: query returns whether the compound falls strictly under 7 in BAF3-FGFR1 (MIN IL3) pIC50. Query: "COc1cc(OC)c(C)c(N(Cc2ncc[nH]2)c2ccc3ncc(-c4cnn(C)c4)nc3n2)c1"
stdout: Not satisfied

stdin: API: query returns whether the compound falls strictly under 7 in BAF3-FGFR1 (MIN IL3) pIC50. Query: "COc1cc(OC)c(F)c(/N=c2\ccc3ncc(-c4cnn(C)c4)nc3n2CCCN2CCCC2=O)c1F"
stdout: Not satisfied

* * *

Attribute: BAF3-FGFR4 pIC50
tested.on: Ba/F3-FGFR4-transfected cells (Homo sapiens, UniProt P22455)
Sequence (P22455 whole entry, change not shown): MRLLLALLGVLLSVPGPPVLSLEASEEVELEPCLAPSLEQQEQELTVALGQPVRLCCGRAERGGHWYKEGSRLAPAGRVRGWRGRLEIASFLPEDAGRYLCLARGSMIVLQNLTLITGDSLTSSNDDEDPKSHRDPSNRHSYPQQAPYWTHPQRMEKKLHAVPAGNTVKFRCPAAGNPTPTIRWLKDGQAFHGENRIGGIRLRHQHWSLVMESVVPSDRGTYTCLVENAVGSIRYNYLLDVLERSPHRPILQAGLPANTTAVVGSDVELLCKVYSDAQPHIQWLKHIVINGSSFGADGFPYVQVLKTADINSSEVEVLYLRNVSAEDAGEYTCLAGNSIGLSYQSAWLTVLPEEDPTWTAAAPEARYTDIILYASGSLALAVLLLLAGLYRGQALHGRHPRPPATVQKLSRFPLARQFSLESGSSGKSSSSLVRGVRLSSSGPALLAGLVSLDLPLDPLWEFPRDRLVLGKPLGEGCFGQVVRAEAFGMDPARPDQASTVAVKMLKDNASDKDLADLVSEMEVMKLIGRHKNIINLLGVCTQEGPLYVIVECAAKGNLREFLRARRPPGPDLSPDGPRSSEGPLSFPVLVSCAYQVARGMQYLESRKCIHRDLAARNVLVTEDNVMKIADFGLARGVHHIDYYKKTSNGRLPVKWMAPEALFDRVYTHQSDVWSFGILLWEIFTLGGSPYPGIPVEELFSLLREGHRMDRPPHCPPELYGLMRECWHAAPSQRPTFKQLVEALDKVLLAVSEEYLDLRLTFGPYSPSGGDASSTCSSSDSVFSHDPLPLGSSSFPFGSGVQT
test.name: Ba/F3-FGFR4 cellular proliferation assay, Alamar Blue
Assay type: cell-based

Below: 5 compounds and their reported BAF3-FGFR4 pIC50.
CNCCN(c1ccc2ncc(-c3cnn(C)c3)nc2n1)c1c(F)c(OC)cc(OC)c1F [Compound 3] | 7.37
COc1cc(/N=c2\ccc3ncc(-c4cnn(C)c4)nc3n2CCCN2CCCC2=O)cc(OC)c1 [Compound 133] | 6.73
Cn1cc(-c2cnc3ccc(N(Cc4ncc[nH]4)c4cc(F)cc(F)c4)nc3n2)cn1 [Compound 27] | 6.09
COc1cc(OC)cc(N(Cc2ncc[nH]2)c2ccc3ncc(N4CCOCC4)nc3n2)c1 [Compound 293] | 6.82
COc1cc(OC)c(F)c(N(CC2CCC(=O)N2)c2ccc3ncc(-c4cnn(C)c4)nc3n2)c1F (stereo not drawn) [Compound 192] | 7.01

Lab note: measured BAF3-FGFR4 pIC50 of COc1cc(OC)c(F)c(N(Cc2cn[nH]c2)c2ccc3ncc(-c4cnn(C)c4)nc3n2)c1 [Compound 125] was ~7.15

Lab note: measured BAF3-FGFR4 pIC50 of CNCCn1/c(=N/c2c(F)c(OC)cc(OC)c2F)ccc2ncc(-c3cn[nH]c3)nc21 [Compound 121] was 6.08

Lab note: measured BAF3-FGFR4 pIC50 of COc1cc(OC)cc(N(Cc2ncc[nH]2)c2ccc3ncc(-c4ccncc4)nc3n2)c1 [Compound 202] was 6.81

Lab note: measured BAF3-FGFR4 pIC50 of COc1cc(O)c(F)c(N(Cc2ncc[nH]2)c2ccc3ncc(-c4cnn(C)c4)nc3n2)c1 [Compound 96] was 7.16

Lab note: measured BAF3-FGFR4 pIC50 of COc1cc(OC)cc(N(CCO)c2ccc3ncc(-c4cnn(C)c4)nc3n2)c1 [Compound 21] was 6.69

Lab note: measured BAF3-FGFR4 pIC50 of COc1cc(OC)c(F)c(N(CCNC2COC2)c2ccc3ncc(-c4cnn(C)c4)nc3n2)c1F (single isomer, unassigned) [Compound 162] was ~7.56

* * *

tested.on: Ba/F3-FGFR4-transfected cells (Homo sapiens)
test.name: Ba/F3-FGFR4 cellular proliferation assay, Alamar Blue
Format: cell-based
measured.property: BAF3-FGFR4 pIC50
Give the figure only, with no unit attached.

Below: 2 compounds and their reported BAF3-FGFR4 pIC50.
COc1cc(OC)c(F)c(N(CC(C)(C)O)c2ccc3ncc(-c4cnn(CC(C)(C)O)c4)nc3n2)c1 (single isomer, unassigned) | 6.16
COc1cc(OC)c(F)c(N(CC2CCC(=O)N2)c2ccc3ncc(-c4cnn(C5CNC5)c4)nc3n2)c1 (stereo not shown) | 5.32

Here is another compound to look at.
Lab note: measured BAF3-FGFR4 pIC50 of "COc1cc(OC)cc(N(CCCN2CCCC2=O)c2ccc3ncc(-c4cnn(C)c4)nc3n2)c1" was 5.99
